# Target or test system: DLK (Homo sapiens, UniProt Q12852)
# Construct: N-terminally GST-tagged DLK (catalytic domain amino acid 1-520) (Carna Bioscience); GST (N)
# Sequence (Q12852 1-520): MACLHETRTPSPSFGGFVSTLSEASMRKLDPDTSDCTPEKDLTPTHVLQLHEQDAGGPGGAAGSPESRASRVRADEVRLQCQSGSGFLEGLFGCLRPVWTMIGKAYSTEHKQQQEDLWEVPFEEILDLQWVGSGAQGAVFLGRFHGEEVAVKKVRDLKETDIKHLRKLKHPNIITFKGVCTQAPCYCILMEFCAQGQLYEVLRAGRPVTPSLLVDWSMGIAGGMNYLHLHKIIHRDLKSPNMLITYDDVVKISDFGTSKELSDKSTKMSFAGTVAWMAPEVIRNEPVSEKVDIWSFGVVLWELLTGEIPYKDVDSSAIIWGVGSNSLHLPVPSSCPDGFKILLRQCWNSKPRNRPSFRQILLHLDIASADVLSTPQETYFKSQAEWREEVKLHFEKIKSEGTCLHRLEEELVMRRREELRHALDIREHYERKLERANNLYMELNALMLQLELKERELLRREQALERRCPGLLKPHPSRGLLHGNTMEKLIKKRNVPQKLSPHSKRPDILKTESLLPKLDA
# Experimental protocol: DLK TR-FRET assay
# Condition label: 5 nM GST-tagged DLK (catalytic domain amino acid 1-520), 40 nM HIS-tagged MKK4 K131M substrate, 30 μM ATP, 60 minutes
pKi: −log10 of the molar value.
Assign class by pKi: not lower than 8 means TRUE; lower than 8 means FALSE.

{"columns": ["Compound", "Group"],
 "data": [
  ["CC(=O)N1CCC(c2ccnc(Nc3cc(C#N)ccn3)c2)CC1 [Example 129]", "FALSE"],
  ["Cn1cc(-c2cc(C3CCOCC3)cc(Nc3cc(OC(F)F)ccn3)n2)cn1 [Example 118]", "TRUE"],
  ["CCc1cc(C2CCN(C3COC3)CC2)cc(Nc2cc(C(F)F)ccn2)n1 [Example 26]", "FALSE"],
  ["N#Cc1ccnc(Nc2cc(C3(C#N)CCNCC3)cc(N3CC(F)C3)n2)c1 [Example 34]", "TRUE"]
]}

IN: API: above_or_equal(metric=pKi, cutoff=8) for item N#Cc1ccnc(Nc2cc(C3(C#N)CCNCC3)cc(N3CC(F)(F)C3)n2)c1 [Example 37]
OUT: TRUE

IN: Is the recorded value of pKi equal to or greater than 8 for this compound? CC(=O)N1CCC(c2cc(Nc3cc(C4CC4)ccn3)nc(N3CCC[C@H]3C)c2)CC1 [Example 142]
OUT: FALSE

IN: Assess whether reported pKi for CC1CCCN1c1cc(C2CCN(CC3CCOCC3)C2)cc(Nc2cc(C#N)ccn2)n1 (stereo not drawn) [Example 115] sits at 8 or higher.
OUT: TRUE

IN: Does pKi meet or surpass 8 for N#Cc1ccnc(Nc2cc(C3CCN(C4COC4)CC3)ccn2)c1 [Example 124] ?
OUT: FALSE

IN: Please check the record COC1CN(c2cc(C3CCOCC3)cc(Nc3cc(C#N)ccn3)n2)C1 [Example 87] and state if its pKi is at or above 8.
OUT: FALSE

IN: Item CS(=O)(=O)N1CCC(c2ccnc(Nc3cc(C#N)ccn3)c2)CC1 [Example 128] with pKi of 8 or above?
OUT: FALSE
